Target: Steroidogenic factor 1 (Homo sapiens)
Experiment: SF1 (NR5A1) inverse agonists, counter-screen for LRH-1 inverse agonist project, cell-based, luminescence, high throughput (AID 651614);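 note: cells cotransfected with StAR promoter reporter and SF1 expression vector; 0% = vehicle on cells with receptor and 100% = vehicle on cells lacking receptor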
Settings: cell-based SF1 luciferase reporter, at 3.6 µM, hits give high values
# inhibition per record follows
Output spec: scalar in %, unitless text.

>>> recorded_result("CCOc1ccc(CCNC(=O)COC(=O)c2ccc(F)c(S(=O)(=O)N3CCOCC3)c2)cc1OCC")
61.6
>>> recorded_result("CC(C)(C)c1ccc(C(=O)O/N=C(\\N)c2ccccn2)cc1")
58.5

// next item, inhibition requested
### Prompt So what does the record say about inhibition for Cc1cc(-n2c(C)cc(C(=O)CSc3ncnc4ccccc34)c2C)no1 ?
### Response 61.3

---

Target: Receptor-interacting serine/threonine-protein kinase 2 (Homo sapiens) (UniProt O43353)
Sequence (O43353 whole entry, looked up): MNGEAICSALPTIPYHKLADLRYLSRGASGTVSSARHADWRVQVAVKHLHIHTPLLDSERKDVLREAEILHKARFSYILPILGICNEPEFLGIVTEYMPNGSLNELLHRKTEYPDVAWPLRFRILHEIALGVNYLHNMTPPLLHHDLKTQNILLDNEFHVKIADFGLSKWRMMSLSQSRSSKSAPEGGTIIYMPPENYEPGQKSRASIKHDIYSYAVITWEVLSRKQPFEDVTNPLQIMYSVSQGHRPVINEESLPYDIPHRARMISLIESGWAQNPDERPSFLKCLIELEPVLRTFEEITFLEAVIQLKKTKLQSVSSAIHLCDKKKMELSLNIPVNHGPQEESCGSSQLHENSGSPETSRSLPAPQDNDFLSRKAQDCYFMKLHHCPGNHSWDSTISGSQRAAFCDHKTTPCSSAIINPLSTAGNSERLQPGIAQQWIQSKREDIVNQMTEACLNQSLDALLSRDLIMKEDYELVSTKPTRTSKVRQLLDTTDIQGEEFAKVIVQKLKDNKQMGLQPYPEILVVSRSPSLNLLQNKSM
Experiment: NOD2-RIPK2 binding disruptors, retest, confirmation, fluorescence, CHO cells, BLA complementation, triplicate (AID 624370);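 note: 0% = DMSO-only wells and the high end = clavulanate BLA-blocked wells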
Conditions: CCF4 FRET, at 4.98 µM
The other results are listed elsewhere or left out. The source made the active and inactive calls.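 Rule for the calls: active = mean inhibition across replicates above a set limit taken from the earlier primary screen (cut at about 21% in these data); inactive = the rest.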
Lab note: assign the record to one of label 1 = active, label 0 = inactive

For orientation, consider the following solved cases.
>>> group("O=C(/C=C/c1ccc(N2CCOCC2)cc1)c1ccccc1")
"label 1"
>>> group("COc1ccc(OC)c(N=Cc2c(O)[nH]c3ccccc23)c1")
"label 1"
>>> group("O=C1C(=O)N(CC2COc3ccccc3O2)c2ccccc21 (stereo not drawn)")
"label 0"
>>> group("Oc1ccc2ccc3cccc[n+]3c2c1")
"label 1"
>>> group("O=C(CSc1ncn[nH]1)Nc1nc(-c2cccc([N+](=O)[O-])c2)cs1")
"label 0"
>>> group("COc1ccc(C(C[N+](=O)[O-])n2nc(C)cc2C)cc1 (stereo not drawn)")
"label 1"

### Prompt What outcome does the record of this test show for O=C1NC(=O)C2C1C(c1ccc([N+](=O)[O-])cc1)=NN2Cc1ccccc1 (stereo not drawn) ?
### Response label 1

### Prompt Please answer likewise for O=[N+]([O-])c1ccc(N/N=C/c2ccccc2)cc1
### Response label 0

### Prompt Please answer likewise for Nc1cccc2c1C(=O)N(Cc1nnc(-c3ccccc3Br)o1)C2=O
### Response label 1

### Prompt Please answer likewise for Cc1cccc2sc(N(CCCN(C)C)C(=O)CCS(=O)(=O)c3ccccc3)nc12
### Response label 1

---

Target: Nuclear receptor coactivator 2 (Homo sapiens) (UniProt Q15596)
Sequence (Q15596 whole entry, looked up): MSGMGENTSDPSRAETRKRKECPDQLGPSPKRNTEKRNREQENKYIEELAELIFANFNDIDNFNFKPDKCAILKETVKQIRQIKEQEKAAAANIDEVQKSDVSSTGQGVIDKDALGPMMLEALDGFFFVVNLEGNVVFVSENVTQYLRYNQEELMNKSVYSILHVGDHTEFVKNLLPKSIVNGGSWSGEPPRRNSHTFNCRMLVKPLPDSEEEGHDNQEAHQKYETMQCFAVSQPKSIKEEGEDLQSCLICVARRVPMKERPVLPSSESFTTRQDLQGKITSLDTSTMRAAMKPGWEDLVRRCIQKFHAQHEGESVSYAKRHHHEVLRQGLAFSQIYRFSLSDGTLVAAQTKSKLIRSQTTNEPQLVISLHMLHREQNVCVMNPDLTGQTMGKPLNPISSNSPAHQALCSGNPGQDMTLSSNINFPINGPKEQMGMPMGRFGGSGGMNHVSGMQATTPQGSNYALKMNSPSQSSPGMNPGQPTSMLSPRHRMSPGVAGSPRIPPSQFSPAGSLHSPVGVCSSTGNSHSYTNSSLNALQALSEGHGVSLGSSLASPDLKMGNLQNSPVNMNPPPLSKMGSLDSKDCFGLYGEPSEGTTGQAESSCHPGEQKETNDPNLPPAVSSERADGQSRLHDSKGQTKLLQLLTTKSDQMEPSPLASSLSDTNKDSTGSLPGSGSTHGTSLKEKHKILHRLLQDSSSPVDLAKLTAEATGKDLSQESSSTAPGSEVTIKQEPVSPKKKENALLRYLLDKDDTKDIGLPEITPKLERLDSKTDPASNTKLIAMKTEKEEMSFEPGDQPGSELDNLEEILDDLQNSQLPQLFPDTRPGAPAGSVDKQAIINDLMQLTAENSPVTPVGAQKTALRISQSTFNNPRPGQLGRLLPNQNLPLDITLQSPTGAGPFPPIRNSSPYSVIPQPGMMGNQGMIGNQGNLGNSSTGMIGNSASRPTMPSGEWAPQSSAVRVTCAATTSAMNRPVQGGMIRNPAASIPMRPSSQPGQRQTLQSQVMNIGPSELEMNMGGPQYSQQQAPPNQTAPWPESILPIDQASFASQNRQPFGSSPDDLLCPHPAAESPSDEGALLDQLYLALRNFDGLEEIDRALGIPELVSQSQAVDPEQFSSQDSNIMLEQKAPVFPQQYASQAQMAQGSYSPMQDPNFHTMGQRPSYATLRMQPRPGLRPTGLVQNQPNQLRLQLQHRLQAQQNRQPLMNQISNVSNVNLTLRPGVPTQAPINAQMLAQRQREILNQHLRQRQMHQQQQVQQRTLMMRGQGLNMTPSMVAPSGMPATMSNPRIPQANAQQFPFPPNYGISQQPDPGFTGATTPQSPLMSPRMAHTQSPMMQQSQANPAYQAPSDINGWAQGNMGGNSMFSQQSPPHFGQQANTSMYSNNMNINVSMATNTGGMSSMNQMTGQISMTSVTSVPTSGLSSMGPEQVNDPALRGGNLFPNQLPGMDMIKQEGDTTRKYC
Assay: SRC2 coactivator transcriptional activity inhibitors, confirmation, cell-based, luminescence, HEK293, triplicate (AID 652008);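 note: 0% = DMSO-treated cells and 100% = Gossypol at 36 µM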
Details: HEK293 GAL4-SRC2 luciferase reporter, at 8.9 µM, hits give high values
# inhibition per record follows
Output spec: scalar in %, unitless text.

Worked cases, inhibition given:
>>> recorded_result("O=C(CCl)NC(Cc1ccccc1)c1ccccc1 (centres undefined)")
47.5
>>> recorded_result("CCOc1cc(CNc2ccc3c(c2)OCCO3)cc(Br)c1OCC")
-1.58
>>> recorded_result("C=C1C(=O)OC2CC1C(O)CC(C)=CCCC(C)=CC(O)CC2C (centres undefined)")
50.8

### Prompt So what does the record say about inhibition for O=c1c2ccccc2oc2cc(C#CC3(O)CCCCC3)ccc12 ?
### Response 48.9

### Prompt Please answer likewise for O=C(Cc1ccc([N+](=O)[O-])cc1)Nc1cccc(C(=O)N2CCCCC2)c1
### Response 23.7

### Prompt Please answer likewise for Cc1nc2c(-c3ccccc3)cnn2c(N)c1-c1ccccc1
### Response 58.2
